assay: self-splicing fitness, log relative to wild type (ln ratio); higher = more splicing; Tetrahymena group I intron in knt gene, E. coli kanamycin selection, DiMSum; sequences stand for … in CUCUCU…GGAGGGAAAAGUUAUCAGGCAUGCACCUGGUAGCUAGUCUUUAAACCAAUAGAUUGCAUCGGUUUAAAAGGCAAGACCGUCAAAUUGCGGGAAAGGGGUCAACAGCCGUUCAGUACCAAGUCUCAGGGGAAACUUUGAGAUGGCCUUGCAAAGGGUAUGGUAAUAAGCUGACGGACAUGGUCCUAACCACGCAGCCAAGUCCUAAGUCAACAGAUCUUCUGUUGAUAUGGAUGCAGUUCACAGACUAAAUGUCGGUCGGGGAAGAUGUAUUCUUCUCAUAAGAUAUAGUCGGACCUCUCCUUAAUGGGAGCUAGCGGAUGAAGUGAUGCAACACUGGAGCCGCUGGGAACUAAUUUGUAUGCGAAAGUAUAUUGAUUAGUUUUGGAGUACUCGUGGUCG; conditions: 30 °C;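 further: selection with 25 µg/mL kanamycin versus none on LB agar overnight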
Classify on self-splicing fitness (ln) using bin A = under -2, bin B = from -2 up to -1, bin C = -1 and over

Task: For the record GCUGAGCAAUAUUACGGUGU , report the class its self-splicing fitness (ln) corresponds to.
Result: bin A

Task: For the record CGCCAGCAAUAUUACGGCGC , report the class its self-splicing fitness (ln) corresponds to.
Result: bin A

Task: For the record AUAAAGCAAUAUUACGCACU , report the class its self-splicing fitness (ln) corresponds to.
Result: bin C

Task: For the record GAUCAGCAAUAUUACGAUGA , report the class its self-splicing fitness (ln) corresponds to.
Result: bin C

Task: For the record GCGUAGCAAUAUUACGCAAG , report the class its self-splicing fitness (ln) corresponds to.
Result: bin A

Task: For the record ACUGAGCAAUAUUACGAGGA , report the class its self-splicing fitness (ln) corresponds to.
Result: bin A

* * *

assay: self-splicing fitness, log relative to wild type (ln ratio); higher = more splicing; Tetrahymena group I intron in knt gene, E. coli kanamycin selection, DiMSum; sequences stand for … in CUCUCU…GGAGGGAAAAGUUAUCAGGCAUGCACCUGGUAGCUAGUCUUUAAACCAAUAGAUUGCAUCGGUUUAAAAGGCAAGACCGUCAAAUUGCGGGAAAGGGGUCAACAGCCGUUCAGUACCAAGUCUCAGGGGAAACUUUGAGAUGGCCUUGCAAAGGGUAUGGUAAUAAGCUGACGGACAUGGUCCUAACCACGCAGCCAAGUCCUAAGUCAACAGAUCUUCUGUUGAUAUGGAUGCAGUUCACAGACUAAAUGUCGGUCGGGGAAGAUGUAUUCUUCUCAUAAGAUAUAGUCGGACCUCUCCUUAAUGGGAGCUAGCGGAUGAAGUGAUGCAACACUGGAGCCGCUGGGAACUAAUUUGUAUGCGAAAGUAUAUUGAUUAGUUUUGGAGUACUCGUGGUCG; details: 37 °C
Each item that follows carries a reported self-splicing fitness (ln).
// no unit string in output, number only

>  <sequence-chain>
AAGAAGCAAUAUUACGCCUG

>  <self-splicing fitness (ln)>
-0.509

$$$$
>  <sequence-chain>
GAGGAGCAAUAUUACGCCCA

>  <self-splicing fitness (ln)>
-0.507

$$$$
>  <sequence-chain>
AAGUAGCAAUAUUACGCGUA

>  <self-splicing fitness (ln)>
-1.29

$$$$
>  <sequence-chain>
UAUUAGCAAUAUUACGAUUG

>  <self-splicing fitness (ln)>
-0.0341

$$$$
>  <sequence-chain>
AGGGAGCAAUAUUACGCGUU

>  <self-splicing fitness (ln)>
-2.46

$$$$
>  <sequence-chain>
UACUAGCAAUAUUACGACUC

>  <self-splicing fitness (ln)>
-0.907

$$$$

Task: Entry GUCCAGCAAUAUUACGGCUC needs its self-splicing fitness (ln) filled in; supply it.
Result: 0.909

Task: Entry AUUCAGCAAUAUUACGCGAG needs its self-splicing fitness (ln) filled in; supply it.
Result: -0.126
